Data origin, for the record: ChEMBL document CHEMBL5390282

# assay: Prodrug conversion in jejunum of C57BL/6 mouse model with CES-/- bearing mouse EL4 cells assessed as Cmax of DON metabolite at 2.9 mg/kg, sc measured upto 6 hrs by LC-MS analysis
# Format: ADME, organism-based
# Set-up: dose 2.9 mg/kg, time < 6 hrs, route sc
# conditions: in vivo
quantity.kind: Cmax (nM)

{"columns": ["smiles.record", "reported.measurement"],
 "data": [
  ["CN(C)CC(=O)N[C@@H](Cc1ccccc1)C(=O)N[C@@H](CCC(=O)C=[N+]=[N-])C(=O)OC(C)(C)C", 1540]
]}

###

# assay: Prodrug conversion in C57BL/6 mouse model with CES-/- bearing mouse EL4 cells assessed as concentration of DON release in tumor administered subcutaneously at 1 mg/kg DON equivalent measured after 30 mins
# Assay type: ADME, organism-based
# conditions: in vivo, sc, 0.5 h, read-out: Drug metabolism

{"columns": ["compound", "concentration / µM"],
 "data": [
  ["CC(=O)N[C@@H](Cc1c[nH]c2ccccc12)C(=O)N[C@@H](CCC(=O)C=[N+]=[N-])C(=O)OC(C)C [SIRPIGLENASTAT]", 1.21],
  ["CN(C)CC(=O)N[C@@H](Cc1ccc(C(F)(F)F)cc1)C(=O)N[C@@H](CCC(=O)C=[N+]=[N-])C(=O)OC(C)(C)C", 4.16],
  ["CN(C)CC(=O)N[C@@H](Cc1ccccc1)C(=O)N[C@@H](CCC(=O)C=[N+]=[N-])C(=O)OC(C)(C)C", 5.49],
  ["CN(C)CC(=O)N[C@@H](CCc1ccccc1)C(=O)N[C@@H](CCC(=O)C=[N+]=[N-])C(=O)OC(C)(C)C", 4.52]
]}
